biological target: Mitogen-activated protein kinase kinase kinase kinase 1 (Homo sapiens); assay: Detection of Compound's Ability to Inhibit HPK1 Kinase Activity Assay
Sequence (Q92918 whole entry): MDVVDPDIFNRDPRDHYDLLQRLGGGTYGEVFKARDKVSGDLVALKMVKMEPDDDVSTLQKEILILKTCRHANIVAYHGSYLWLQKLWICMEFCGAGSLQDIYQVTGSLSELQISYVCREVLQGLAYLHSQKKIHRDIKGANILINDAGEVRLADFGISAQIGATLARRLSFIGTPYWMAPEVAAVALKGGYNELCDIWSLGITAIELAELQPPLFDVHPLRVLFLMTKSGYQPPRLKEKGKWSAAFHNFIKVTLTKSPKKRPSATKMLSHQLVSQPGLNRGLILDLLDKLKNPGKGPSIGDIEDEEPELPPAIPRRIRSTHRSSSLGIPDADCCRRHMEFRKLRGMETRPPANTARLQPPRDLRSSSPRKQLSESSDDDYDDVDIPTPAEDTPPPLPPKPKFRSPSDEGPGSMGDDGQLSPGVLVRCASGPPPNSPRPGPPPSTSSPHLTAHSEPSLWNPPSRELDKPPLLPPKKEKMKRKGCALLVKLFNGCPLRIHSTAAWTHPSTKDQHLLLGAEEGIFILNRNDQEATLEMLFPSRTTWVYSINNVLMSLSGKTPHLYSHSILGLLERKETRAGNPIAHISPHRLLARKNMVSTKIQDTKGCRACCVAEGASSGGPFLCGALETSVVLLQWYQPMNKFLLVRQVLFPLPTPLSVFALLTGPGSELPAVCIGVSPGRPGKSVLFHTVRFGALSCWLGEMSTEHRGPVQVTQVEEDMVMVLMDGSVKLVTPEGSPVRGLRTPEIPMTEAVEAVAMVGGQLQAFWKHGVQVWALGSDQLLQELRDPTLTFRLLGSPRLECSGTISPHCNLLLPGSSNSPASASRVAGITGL
Measured IC50, listed per entry for reference.

Would you please look over these solved cases?
Structure As Smiles | IC50
COc1nc2c(cc1Nc1ncc3ccnc(N4CC(F)(F)C[C@H]4CO)c3n1)CN(C)CC2 | < 0.1 nM
COc1nc2c(cc1Nc1ncc3ccnc(NCC(C)(C)O)c3n1)CN(C)CC2 | < 0.1 nM

Request: Fill in the blank: the reported IC50 of CCOc1nc2c(cc1Nc1ncc3ccnc(N[C@H](CO)C(C)C)c3n1)CN(C)CC2 is ____.
Response: < 0.1 nM

Request: Fill in the blank: the reported IC50 of CCOc1nc2c(cc1Nc1ncc3ccnc(N[C@@H]4CCC[C@H]4O)c3n1)CN(C)CC2 is ____.
Response: 18.1 nM
